Calls of active or inactive are those of the source.
Heads up, these molecules all have Kd values measured for Serine/threonine-protein kinase 16 (Homo sapiens, UniProt O75716).
MEASURED_ENDPOINT: Kd

[[record]]
molecule = "CCN1CCN(Cc2ccc(Nc3ncc(F)c(-c4cc(F)c5nc(C)n(C(C)C)c5c4)n3)nc2)CC1"
measured_endpoint = "Kd"
result = "0.495 µM (active)"

[[record]]
molecule = "COc1ccc(-c2ccc3ncc4c(c3c2)n(-c2ccc(N3CCNCC3)c(C(F)(F)F)c2)c(=O)n4C)cn1 [BGT-226 FREE BASE]"
measured_endpoint = "Kd"
result = "> 30 µM (inactive)"

[[record]]
molecule = "C=CCn1c(=O)c2cnc(Nc3ccc(N4CCN(C)CC4)cc3)nc2n1-c1cccc(C(C)(C)O)n1"
measured_endpoint = "Kd"
result = "> 30 µM (inactive)"

[[record]]
molecule = "CN(c1ncccc1CNc1nc(Nc2ccc3c(c2)CC(=O)N3)ncc1C(F)(F)F)S(C)(=O)=O"
measured_endpoint = "Kd"
result = "0.138 µM (active)"

[[record]]
molecule = "O=C(NC[C@H](O)CO)c1ccncc1Nc1ccc(I)cc1F"
measured_endpoint = "Kd"
result = "> 30 µM (inactive)"

[[record]]
molecule = "C[C@]1(O)C[C@@H](c2nc(-c3ccc4ccc(-c5ccccc5)nc4c3)c3c(N)nccn32)C1"
measured_endpoint = "Kd"
result = "> 30 µM (inactive)"

[[record]]
molecule = "Cc1ccc(C(=O)Nc2ccc(Oc3cc4cnn(C)c4cc3-c3cn[nH]c3)c(F)c2)c(=O)n1-c1ccc(F)cc1"
measured_endpoint = "Kd"
result = "> 30 µM (inactive)"


Where do the numbers come from? From ChEMBL document CHEMBL3991601.
